B1: LINE1-full (parent)
chain: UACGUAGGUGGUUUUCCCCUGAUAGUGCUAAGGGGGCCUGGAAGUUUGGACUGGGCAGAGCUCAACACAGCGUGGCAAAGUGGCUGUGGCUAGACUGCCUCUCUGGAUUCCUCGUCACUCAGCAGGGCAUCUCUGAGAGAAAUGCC

variants of: B1; assay: self-cleavage, relative activity (ratio to wild type); higher = more cleavage; in vitro, sequencing; the parent is a self-cleaving ribozyme
assay_metric: self-cleavage

Below, 4 variants whose answers are already recorded.
chain	assay_metric	observed_value
UACGUAGGCGGUUUUCCCCUGAUAGUGCUAAGGGGGCCUGGAAGUUUGGACUGGGCAGGGCUCAACACAGCGUGGCAAAGUGGCUGUGGCUAGACUGCCUCUCUGGAUUCCUCGUCACUCAGCAGGGCAUCUCUGAGAGAAAUGCC [U9C A59G]	self-cleavage	0.11
UACGUAGGUGGUUUUCCCCUGAUAGUGCUAAGGGGGCCUGGAAGUUUGGACUGGGCAGAGCUCAACACAGCGUGGCAAAGUGGCUGUGGCUAGACUGCCUCUCUGGAUUCCUCGUCACUCAGCAGGGCGUUUCUGAGAGAAAUGCC [A129G C131U]	self-cleavage	0.92
UACGUAGGUGGUCUUCCCCUGAUAGUGCUAAGGGGGCCUGGAAGUUUGGACUGGGCAGAGCUCAACACAGCGUGGCAAAGUGUCUGUGGCUAGACUGCCUCUCUGGAUUCCUCGUCACUCAGCAGGGCAUCUCUGAGAGAAAUGCC [U13C G83U]	self-cleavage	0.27
UACGUAGGUGGUUUUCCCCUGAUAGUGCUAAGGGGGCCUGGAAGUUUGGACUGGGCAGAGCUCAACACAGCGUGGCAAAGUGGCAGUGGCUAGACUGCCUUUCUGGAUUCCUCGUCACUCAGCAGGGCAUCUCUGAGAGAAAUGCC [U85A C101U]	self-cleavage	0.06

Okay, here is my list. What is self-cleavage for each of these?
1. UACGUAGGUGGUUUUCCCCUGAUGGUGCUAAGGGGGCCUGGAAGUUUGGACUGGGCAGAGCUCAACUCAGCGUGGCAAAGUGGCUGUGGCUAGACUGCCUCUCUGGAUUCCUCGUCACUCAGCAGGGCAUCUCUGAGAGAAAUGCC [A24G A67U]
2. UACGUAGGUGGUUUUCCCCUGAUAGUGCUAAGGGGGCCUGGAAGUUUGGACUGGGCAGAGCUCAACACAGCGUGGCAAAGUGGCUGUGGCUAGACUGCCUCUCUGGGUUCCUCGUCACUCAGCAGGGCAUUUCUGAGAGAAAUGCC [A107G C131U]

Outgoing:
0.24
1.83

Dear colleague, could you send me self-cleavage for each of the items below? Thanks.
1. UACGUAGGUGGUUUUCCCCUGAUAGUGCUAAGGGGGCCUGGAAGUUUGGACUGGGCAGAGCUCAACACGGCGUGGCAAAGUGGCUGUGGCUAGACUGCCUCUCUGGAUUCCUCGUCACUCAGCAAGGCAUCUCUGAGAGAAAUGCC [A69G G125A]
2. UACGUAGGUGGUUUUCCCCUGAUAGUGCUAAGGGGGCCUGGAAGUUUGGACUGGGCAGAGCUCAACACAGCGUGGCAAAGUGGCUGUGGCUAGACUGCCUCUCUGGAUUCCUCGUCACUCAGCAGGGCAUCGCUGAGAGAGAUGCC [U132G A141G]
3. UACGUAGGUGGUUUUCCCCUGAUAGUGCUAAGGGGGCCUGGAAGUUUGGACUGGGCAGAGCUCAACCCAGCGUGGCAAAGUGGCUGUGGCUAGACUGCCUCUCUGGAUUCCUCGUCACUCAGCAGGGCACCUCUGAGAGAAAUGCC [A67C U130C]
4. UACGUAGGUGGUUUUCCCCUGAUAGUGCUAAGGGGGCCUUGAAGUUUGGGCUGGGCAGAGCUCAACACAGCGUGGCAAAGUGGCUGUGGCUAGACUGCCUCUCUGGAUUCCUCGUCACUCAGCAGGGCAUCUCUGAGAGAAAUGCC [G40U A50G]
5. UACGUAGGUGGUUUUCCCCUGAUAGUGCUAAGGGGGCCUGGAAGUUUGGACUGGGCAGAGCUCAACACAGCGUGGCAAAGUGGGUGUGGCUAGACUGCCUCUCUGGAUUCCUCGUCACUCAGCAGGGCAUCCCUGAGAGAAAUGCC [C84G U132C]

Outgoing:
1: 0.72; 2: 1.22; 3: 0.04; 4: 0; 5: 0.11
